Value source: patent US7799775B2

Record form. Attribute: 5-HT1A Receptor Agonistic Action on Rats, LLR. Fill in for each entry.
Target: 5-HT1A receptor (Rattus norvegicus, UniProt P19327)
Construct: from tissue; host or cells: whole animal (SD male rats), behavioural read-out
Sequence (P19327 whole entry): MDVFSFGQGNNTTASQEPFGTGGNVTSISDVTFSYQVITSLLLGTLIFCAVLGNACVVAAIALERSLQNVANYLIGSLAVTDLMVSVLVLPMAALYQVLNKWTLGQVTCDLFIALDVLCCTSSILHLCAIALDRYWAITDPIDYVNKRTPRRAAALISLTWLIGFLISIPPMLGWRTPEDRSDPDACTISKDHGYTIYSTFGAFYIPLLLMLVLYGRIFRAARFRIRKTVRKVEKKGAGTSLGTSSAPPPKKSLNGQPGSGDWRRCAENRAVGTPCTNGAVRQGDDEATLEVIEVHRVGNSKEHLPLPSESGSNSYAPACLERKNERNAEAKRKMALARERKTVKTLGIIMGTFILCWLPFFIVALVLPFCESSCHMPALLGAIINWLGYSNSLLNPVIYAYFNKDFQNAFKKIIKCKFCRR
Experiment: Measurement of 5-HT1A receptor agonistic action on rats (in vivo): lower lip retraction and flat body posture
Details: SD male rats, 10 mg/kg intraperitoneal; maximum of group evaluation points, 4 grades 0-3, observed 5-30 min after administration
Numbers only.

// worked examples, 5-HT1A Receptor Agonistic Action on Rats, LLR included
>>> readout_number("CCn1c(CCCCN2CCN(c3cc(C)c4ccccc4n3)CC2)nc2c(c1=O)CCCC2")
2.2
>>> readout_number("Clc1ccc2ccnc(N3CCN4CCC[C@H]4C3)c2c1")
2.4
>>> readout_number("Nn1c(CCCCN2CCN(c3ccc4ccccc4n3)CC2)nc2ccccc2c1=O")
1.8

Dear colleague, could you send me 5-HT1A Receptor Agonistic Action on Rats, LLR for each of the items below? Thanks.
1. Cc1cc(N2CCN(CCCCc3nc4ccccc4c(=O)n3N)CC2)nc2ccccc12
2. Cc1cc2c(N3CCN4CCC[C@H]4C3)nccc2s1
3. c1cc2ccsc2c(N2CCN3CCC[C@@H]3C2)n1
4. Clc1ccc2ccnc(N3CCNCC3)c2c1

[out]
1: 2.8; 2: 2.8; 3: 2.4; 4: 2.2

Dear colleague, could you send me 5-HT1A Receptor Agonistic Action on Rats, LLR for each of the items below? Thanks.
1. CN1CCN(c2nccc3ccsc23)CC1
2. c1cc2ccoc2c(N2CCN3CCC[C@H]3C2)n1

[out]
1: 2.8; 2: 3.0
